- assay-target: HLA-B*44:02
- experiment-notes: IEDB peptide-MHC binding, purified MHC/competitive/radioactivity; filed as Kd, often an IC50 or EC50 that approximates it; bounds were set here for any values at or beyond the usual limits of such assays
- experimental-parameters: source organism: Mammarenavirus lassaense
reported-endpoint: Kd

seq-string | assay-target | result
FDAAVMGGF | HLA-B*44:02 | ≥ 27.4 µM

For DEADLDEILL , write its Kd. ≥ 45.6 µM

###

- assay-target: HLA-B*08:01
- experiment-notes: IEDB peptide-MHC binding, purified MHC/competitive/fluorescence; filed as Kd, often an IC50 or EC50 that approximates it; bounds were set here for any values at or beyond the usual limits of such assays
- experimental-parameters: source organism: Salmonella enterica subsp. enterica serovar Typhi
pKd: −log10 of the molar value.
reported-endpoint: pKd

Specify measured pKd for MSAIVSCRY . ≤ 4.70

###

- assay-target: HLA-B*53:01
- experiment-notes: IEDB peptide-MHC binding, purified MHC/competitive/fluorescence; filed as Kd, often an IC50 or EC50 that approximates it; bounds were set here for any values at or beyond the usual limits of such assays
- experimental-parameters: source organism: Giardia lamblia ATCC 50803
pKd: −log10 of the molar value.
reported-endpoint: pKd

State its pKd for this sequence: MTYLDGHPV ≤ 5.30

###

- assay-target: HLA-B*46:01
- experiment-notes: IEDB peptide-MHC binding, purified MHC/competitive/fluorescence; filed as Kd, often an IC50 or EC50 that approximates it; bounds were set here for any values at or beyond the usual limits of such assays
- experimental-parameters: source organism: Listeria monocytogenes J0161
reported-endpoint: Kd

Give Kd for the following sequence: FSIMIYFTF ≥ 20 µM

###

- assay-target: HLA-B*07:02
- experiment-notes: IEDB peptide-MHC binding, purified MHC/direct/fluorescence; filed as Kd, often an IC50 or EC50 that approximates it; bounds were set here for any values at or beyond the usual limits of such assays
- experimental-parameters: source organism: Francisella tularensis subsp. holarctica LVS
pKd: −log10 of the molar value.
reported-endpoint: pKd

For EFKQILTDF , write its pKd. ≤ 4.70

###

- assay-target: HLA-A*26:01
- experiment-notes: IEDB peptide-MHC binding, purified MHC/competitive/fluorescence; filed as Kd, often an IC50 or EC50 that approximates it; bounds were set here for any values at or beyond the usual limits of such assays
- experimental-parameters: source organism: Orthohantavirus sinnombreense
reported-endpoint: pKd
Here pKd is given on a logarithmic scale as minus log10 of the concentration in mol/L.

Tell me measured pKd for HTVGLGQGY please. 8.68

###

- assay-target: HLA-B*27:05
- experiment-notes: IEDB peptide-MHC binding, purified MHC/direct/fluorescence; filed as Kd, often an IC50 or EC50 that approximates it; bounds were set here for any values at or beyond the usual limits of such assays
- experimental-parameters: source organism: Giardia lamblia ATCC 50803
reported-endpoint: Kd

Item YQYGDNLIL : provide Kd 0.43 µM

###

- assay-target: HLA-A*01:01
- experiment-notes: IEDB peptide-MHC binding, purified MHC/direct/fluorescence; filed as Kd, often an IC50 or EC50 that approximates it; bounds were set here for any values at or beyond the usual limits of such assays
- experimental-parameters: source organism: Pasteurella multocida
pKd: −log10 of the molar value.
reported-endpoint: pKd

System HLA-A*01:01. Read-out pKd. Item SQLEMCEKY . Report value. ≤ 4.70
